- assayText: 19F NMR titration, average association constants of PFECAs with β-CD
- Type: binding
- conditionSet: 2:1 β-CD:PFECA; pH 7
assayReadout: Average association constant with β-CD (2:1)

Worked cases, answers included:
O=C(O)C(F)(F)OC(F)(F)C(F)(F)OC(F)(F)C(F)(F)OC(F)(F)C(F)(F)C(F)(F)C(F)(F)F 1.36 +/− 0.28 × 10^5 M^−1
O=C(O)C(F)(F)OC(F)(F)C(F)(F)OC(F)(F)C(F)(F)OC(F)(F)F 4.12 +/− 1.08 × 10^3 M^−1
O=C(O)C(F)(F)OC(F)(F)C(F)(F)OC(F)(F)C(F)(F)C(F)(F)C(F)(F)F 7.72 +/− 2.43 × 10^3 M^−1

Next compound, please.
[Q] Need Average association constant with β-CD (2:1), item "O=C(O)C(F)(F)OC(F)(F)C(F)(F)OC(F)(F)F"
[A] 3.87 +/− 1.40 × 10^2 M^−1
